Data origin, for the record: patent US20210253725A1

This listing pairs binders with measured IL-8, cross-linked by F(ab')2 fragment [abs. corr.].
Target: T1, CD27 expressed on the cell surface (HT1080_CD27 cells) (human, UniProt P26842 20-260); note: test concentration or dose not given here
T1 sequence (looked up): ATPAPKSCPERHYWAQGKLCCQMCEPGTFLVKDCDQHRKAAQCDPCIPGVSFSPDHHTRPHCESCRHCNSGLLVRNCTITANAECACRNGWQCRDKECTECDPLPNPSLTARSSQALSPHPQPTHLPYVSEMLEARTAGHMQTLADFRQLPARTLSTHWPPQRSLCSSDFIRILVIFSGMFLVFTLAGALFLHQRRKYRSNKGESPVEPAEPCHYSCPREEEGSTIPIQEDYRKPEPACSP
Test: cell-based or functional assay
Property: IL-8, cross-linked by F(ab')2 fragment [abs. corr.] (abs. corr.)

1. P018.S.09.A.E03 (antibody, V domains shown, V regions on human Ig constant parts; also called AB27_154) VH: QSVEESGGRLVTPGTPLTLTCTASGFSLSSYYMGWVRQAPGKGLEWIGFITSGGSGSTYYASWAKGRFTISKTSTTVDLKMTSLTTEDTATYFCARYGDSFYWALDLWGQGTLVTVSS VL: AQVLTQTPSSVSAAVGGTVTINCQSSQSVLNNDLSWYQQKPGQPPKLLIYAASTLASGVPSRFKGSGSGTQFTLTINVGQSDDAATYYCQGYFIDVNNPFGGGTEVVVK ... 1.54
2. P018.S.07.A.E05 (antibody, V domains shown, V regions on human Ig constant parts; also called AB27_126) VH: QSLEESGGRLVTPGGSLTLTCTVSGIDLSSYAMIWVRQAPGKGLEWIGYIYGGSGSTWYASWAKGRFTISKTSSTTVDLKMTSLTTEDTATYFCARAYDSGYIGNSFYIFDPWGPGTLVTVSS VL: DIVMTQTPASVSATVGGTVTIKCQASQSISSRLAWYQQKPGQPPKLLIYSASTLASGVSSRFRGSGSGTEFTLTISDLESADGATYYCAGYGGLGITAFGGGTEVVVK ... 1.15
